organism: Rattus norvegicus; test: Open TG-GATES - Regimen: Daily Repeat; format: toxicity, organism-based, Sprague-Dawley; parameters: regimen Daily Repeat, gender Male, age 6 weeks; conditions: in vivo, po, 0 mg/kg, […], tissue Plasma, route gavage, dose level Control, time 28 day
Classification field: enter Yes for AST values not below 60 IU/L, No for values below it.

Before answering, review these 6 worked examples.
INSERT INTO measurements (molecule, class_assignment) VALUES
  ('CCC1(c2ccccc2)C(=O)NC(=O)NC1=O [PHENOBARBITAL]', 'No'),
  ('CN(C)CCC=C1c2ccccc2COc2ccccc21 [DOXEPIN]', 'Yes'),
  ('CCc1oc2ccccc2c1C(=O)c1cc(Br)c(O)c(Br)c1 [BENZBROMARONE]', 'No'),
  ('CC1=C(CC(=O)O)c2cc(F)ccc2/C1=C\c1ccc([S+](C)[O-])cc1 (stereo unspecified)', 'Yes'),
  ('O=NN(CCCl)C(=O)NC1CCCCC1 [LOMUSTINE]', 'Yes'),
  ('CC[C@H]1[C@@H]2C[C@H]3[C@@H]4N(C)c5ccccc5[C@]45C[C@@H]([C@@H]2[C@H]5O)N3[C@@H]1O [AJMALINE]', 'No');

Kindly consider the entry below.
Answer whether AST of CC(C)N(CCC(C(N)=O)(c1ccccc1)c1ccccn1)C(C)C (stereo unspecified) [DISOPYRAMIDE] is greater than or equal to 60 IU/L.
Yes

* * *

species: Rattus norvegicus; assay: Open TG-GATES - Regimen: Single; format: toxicity, organism-based, Sprague-Dawley; parameters: regimen Single, gender Male, age 6 weeks; settings: in vivo, po, 0 mg/kg, 3 h, tissue Blood, route gavage, dose level Control
Rule for this label: true (1) means Mono is less than 4%; false (0) means Mono is at least 4%.

Before answering, review these 4 worked examples.
INSERT INTO measurements (compound, class_assignment) VALUES
  ('CN(C)CCC=C1c2ccccc2COc2ccccc21 [DOXEPIN]', 'true (1)'),
  ('CC[C@H]1[C@@H]2C[C@H]3[C@@H]4N(C)c5ccccc5[C@]45C[C@@H]([C@@H]2[C@H]5O)N3[C@@H]1O', 'false (0)'),
  ('CC(C)N(CCC(C(N)=O)(c1ccccc1)c1ccccn1)C(C)C (stereo not given) [DISOPYRAMIDE]', 'true (1)'),
  ('CCC1(c2ccccc2)C(=O)NC(=O)NC1=O', 'true (1)');

Kindly consider the entry below.
Is 4% strictly greater than the compound's reported Mono? compound: `O=NN(CCCl)C(=O)NC1CCCCC1`
false (0)

* * *

Listing of entries alongside the reported DBIL.
organism: Rattus norvegicus; test: Open TG-GATES - Regimen: Daily Repeat; assay type: toxicity, organism-based, Sprague-Dawley; set-up: regimen Daily Repeat, gender Male, age 6 weeks; conditions: in vivo, po, 0 mg/kg, 72 h, tissue Plasma, route gavage, dose level Control, time 3 day
Write the figure, then the unit, nothing else.

Specify measured DBIL for CC1=C(CC(=O)O)c2cc(F)ccc2/C1=C\c1ccc([S+](C)[O-])cc1 (configuration not stated) .
0.014 mg/dL

Specify measured DBIL for O=NN(CCCl)C(=O)NC1CCCCC1 [LOMUSTINE] .
0.006 mg/dL

Specify measured DBIL for ClC(Cl)(Cl)Cl [CARBON TETRACHLORIDE] .
0.08 mg/dL

Specify measured DBIL for CN(C)CCC=C1c2ccccc2COc2ccccc21 [DOXEPIN] .
0.018 mg/dL

Specify measured DBIL for CCc1oc2ccccc2c1C(=O)c1cc(Br)c(O)c(Br)c1 [BENZBROMARONE] .
0.008 mg/dL

Specify measured DBIL for OCCOCCN1CCN(C(c2ccccc2)c2ccc(Cl)cc2)CC1 (configuration not stated) [HYDROXYZINE] .
0.012 mg/dL

Specify measured DBIL for CN(C)C(=N)N=C(N)N [METFORMIN] .
0.014 mg/dL

* * *

organism: Rattus norvegicus; assay: Open TG-GATES - Regimen: Single; format: toxicity, organism-based, Sprague-Dawley; set-up: regimen Single, gender Male, age 6 weeks; details: in vivo, po, 0 mg/kg, 24 h, tissue Blood, route gavage, dose level Control
QUANTITY: Fbg (mg/dL)
Numbers only; they are read as mg/dL.

INSERT INTO assay_data (compound, quantitative_readout) VALUES
  ('OCCOCCN1CCN(C(c2ccccc2)c2ccc(Cl)cc2)CC1 (stereo not given) [HYDROXYZINE]', 275.8),
  ('ClC(Cl)(Cl)Cl [CARBON TETRACHLORIDE]', 256.8),
  ('O=NN(CCCl)C(=O)NC1CCCCC1', 225),
  ('CC[C@H]1[C@@H]2C[C@H]3[C@@H]4N(C)c5ccccc5[C@]45C[C@@H]([C@@H]2[C@H]5O)N3[C@@H]1O', 211.2),
  ('CN(C)C(=N)N=C(N)N', 230.4),
  ('CCc1oc2ccccc2c1C(=O)c1cc(Br)c(O)c(Br)c1', 220.2),
  ('CC1=C(CC(=O)O)c2cc(F)ccc2/C1=C\c1ccc([S+](C)[O-])cc1 (stereo not given)', 292.8),
  ('CC(C)N(CCC(C(N)=O)(c1ccccc1)c1ccccn1)C(C)C (stereo not given) [DISOPYRAMIDE]', 317);

Specify measured Fbg for CN(C)CCC=C1c2ccccc2COc2ccccc21 [DOXEPIN] .
269

Specify measured Fbg for `CCC1(c2ccccc2)C(=O)NC(=O)NC1=O` .
221.2

* * *

species on record: Rattus norvegicus; experiment: Open TG-GATES - Regimen: Single; format: toxicity, organism-based, Sprague-Dawley; set-up: regimen Single, gender Male, age 6 weeks; details: in vivo, po, 100 mg/kg, 24 h, tissue Blood, route gavage, dose level Low
Listing of entries alongside the reported Neu.
Numbers only; they are read as %.

Example entries and their recorded answers appear below.
INSERT INTO measurements (compound, quantitative_readout) VALUES
  ('CN(C)C(=N)N=C(N)N', 19.8),
  ('CCC1(c2ccccc2)C(=O)NC(=O)NC1=O', 17.8),
  ('CN(C)CCC=C1c2ccccc2COc2ccccc21 [DOXEPIN]', 17.4);

Moving on to the next compound.
Specify measured Neu for `O=NN1CCOCC1` .
27.8

* * *

Listing of entries alongside the reported AST.
species: Rattus norvegicus; experiment: Open TG-GATES - Regimen: Single; assay type: toxicity, organism-based, Sprague-Dawley; set-up: regimen Single, gender Male, age 6 weeks; conditions: in vivo, po, 0 mg/kg, 9 h, tissue Plasma, route gavage, dose level Control
Write the figure, then the unit, nothing else.

Example entries and their recorded answers appear below.
INSERT INTO results (compound, quantity, result) VALUES
  ('CC[C@H]1[C@@H]2C[C@H]3[C@@H]4N(C)c5ccccc5[C@]45C[C@@H]([C@@H]2[C@H]5O)N3[C@@H]1O', 'AST', '63 IU/L'),
  ('CC(C)N(CCC(C(N)=O)(c1ccccc1)c1ccccn1)C(C)C (centres undefined) [DISOPYRAMIDE]', 'AST', '72.8 IU/L'),
  ('OCCOCCN1CCN(C(c2ccccc2)c2ccc(Cl)cc2)CC1 (centres undefined) [HYDROXYZINE]', 'AST', '75 IU/L');

Moving on to the next compound.
Specify measured AST for `CCc1oc2ccccc2c1C(=O)c1cc(Br)c(O)c(Br)c1` .
58.8 IU/L

* * *

organism: Rattus norvegicus; assay: Open TG-GATES - Regimen: Single; format: toxicity, organism-based, Sprague-Dawley; parameters: regimen Single, gender Male, age 6 weeks; conditions: in vivo, po, 0 mg/kg, 3 h, tissue Blood, route gavage, dose level Control
Listing of entries alongside the reported RBC.
Numbers only; they are read as x10_4/ul.

Specify measured RBC for `CCc1oc2ccccc2c1C(=O)c1cc(Br)c(O)c(Br)c1` .
621.4

* * *

organism: Rattus norvegicus; test: Open TG-GATES - Regimen: Single; type: toxicity, organism-based, Sprague-Dawley; parameters: regimen Single, gender Male, age 6 weeks; conditions: in vivo, po, 0 mg/kg, 3 h, tissue Kidney, route gavage, dose level Control
QUANTITY: KIDNEY_TOTAL (g)
Numbers only; they are read as g.

INSERT INTO results (compound, quantity, result_units, quantitative_readout) VALUES
  ('CC(C)N(CCC(C(N)=O)(c1ccccc1)c1ccccn1)C(C)C (stereo not given) [DISOPYRAMIDE]', 'KIDNEY_TOTAL', 'g', 1.9),
  ('CC[C@H]1[C@@H]2C[C@H]3[C@@H]4N(C)c5ccccc5[C@]45C[C@@H]([C@@H]2[C@H]5O)N3[C@@H]1O', 'KIDNEY_TOTAL', 'g', 1.9),
  ('CCc1oc2ccccc2c1C(=O)c1cc(Br)c(O)c(Br)c1', 'KIDNEY_TOTAL', 'g', 1.9),
  ('CCC1(c2ccccc2)C(=O)NC(=O)NC1=O', 'KIDNEY_TOTAL', 'g', 2.1),
  ('CN(C)C(=N)N=C(N)N', 'KIDNEY_TOTAL', 'g', 1.8);

Specify measured KIDNEY_TOTAL for CN(C)CCC=C1c2ccccc2COc2ccccc21 [DOXEPIN] .
1.8

Specify measured KIDNEY_TOTAL for OCCOCCN1CCN(C(c2ccccc2)c2ccc(Cl)cc2)CC1 (stereo not given) [HYDROXYZINE] .
1.7

Specify measured KIDNEY_TOTAL for `O=NN(CCCl)C(=O)NC1CCCCC1` .
1.9

Specify measured KIDNEY_TOTAL for ClC(Cl)(Cl)Cl [CARBON TETRACHLORIDE] .
1.8

Specify measured KIDNEY_TOTAL for CC1=C(CC(=O)O)c2cc(F)ccc2/C1=C\c1ccc([S+](C)[O-])cc1 (stereo not given) .
1.7
